# Experimental Protocol: in vivo
# Settings: male, Sprague Dawley, rat, whole blood, iv, 1 mg/kg
Measured Endpoint: clearance (mL/min/kg)
# unit: mL/min/kg | format: bare number

Compound	clearance / mL/min/kg
CO[C@H]1C[C@@H]2CC[C@@H](C)[C@@](O)(O2)C(=O)C(=O)N2CCCC[C@H]2C(=O)O[C@H]([C@H](C)C[C@@H]2CC[C@@H](OCCO)[C@H](OC)C2)CC(=O)[C@H](C)/C=C(\C)[C@@H](O)[C@@H](OC)C(=O)[C@H](C)C[C@H](C)/C=C/C=C/C=C/1C [RAD001, everolimus, reference compound]	32

According to the records, this compound CO[C@@H]1C[C@H](C[C@@H](C)[C@@H]2CC[C@H](C)/C=C(\C)[C@@H](O)[C@@H](OC)C(=O)[C@H](C)C[C@H](C)/C=C/C=C/C=C(\C)[C@H](N3CCCS3(=O)=O)C[C@@H]3CC[C@@H](C)[C@@](O)(O3)C(=O)C(=O)N3CCCC[C@H]3C(=O)O2)CC[C@H]1O [Example 2] displays clearance of 9
